Molecular target: ABCD2 WT (Homo sapiens, UniProt Q9UBJ2)
Sequence (Q9UBJ2 1-740): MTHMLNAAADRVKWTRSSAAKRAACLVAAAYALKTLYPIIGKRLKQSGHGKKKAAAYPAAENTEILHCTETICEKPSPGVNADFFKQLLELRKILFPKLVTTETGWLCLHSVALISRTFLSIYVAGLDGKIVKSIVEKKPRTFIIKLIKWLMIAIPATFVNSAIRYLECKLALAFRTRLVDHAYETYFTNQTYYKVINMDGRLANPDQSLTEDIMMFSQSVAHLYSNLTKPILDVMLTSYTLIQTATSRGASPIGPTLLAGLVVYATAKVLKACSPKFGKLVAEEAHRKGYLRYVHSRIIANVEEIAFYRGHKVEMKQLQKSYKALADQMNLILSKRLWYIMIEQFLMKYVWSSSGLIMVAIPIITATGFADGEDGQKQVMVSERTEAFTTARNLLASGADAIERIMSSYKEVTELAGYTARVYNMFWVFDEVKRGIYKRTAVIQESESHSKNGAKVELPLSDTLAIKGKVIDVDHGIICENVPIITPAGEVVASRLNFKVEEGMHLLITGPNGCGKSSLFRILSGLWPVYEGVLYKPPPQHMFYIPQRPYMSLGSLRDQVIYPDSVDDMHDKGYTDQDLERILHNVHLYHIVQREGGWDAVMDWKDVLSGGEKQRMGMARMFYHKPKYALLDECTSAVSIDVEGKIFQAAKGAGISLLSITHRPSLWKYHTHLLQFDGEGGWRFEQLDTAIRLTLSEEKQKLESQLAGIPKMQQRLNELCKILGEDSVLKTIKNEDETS
Test: D2 correction dose-response assay: ABCD2 WT HiBit protein expression
Conditions: HEK-293/ABCD2 WT cells, 24 hours treatment, HiBit luminescence; class combines EC50 and Mean MaxAct (fold); read-out: ABCD2 WT EC50, Emax
pEC50: −log10 of the molar value.
Value kind: pEC50

Past entries and their recorded results:
Entry Cc1cc(C(F)F)nc(C2CC2)c1Oc1nc(-c2cncc(C#N)c2)ccc1S(=O)(=O)NC1CCOCC1 , pEC50 reported as < 4.60

Entry CCS(=O)(=O)Nc1ccc(-c2cncc(C#N)c2)nc1Oc1c(C)cc(C(F)(F)F)nc1C1CC1 , pEC50 reported as > 6.00

More entries:
Entry Cc1cc(C)c(Oc2nc(N3CCN(C(=O)C(C)(C)C)CC3)ccc2NS(C)(=O)=O)c(C)c1 , pEC50 reported as < 4.60

Entry Cc1cc(C)c(Oc2nc(N3CCC(C#N)C3)ccc2NS(C)(=O)=O)c(C)c1 (single isomer, unassigned) [Compound I-262] , pEC50 reported as 5.00 to 6.00

Entry Cc1cc(C)c(Oc2nc(-c3cncc(C#N)c3)ccc2NS(=O)(=O)C2CCC2)c(C)c1 , pEC50 reported as 5.00 to 6.00

Entry Cc1cc(C)c(Oc2nc(N3CCN(C(=O)C4(C)CC4)CC3)ccc2NS(C)(=O)=O)c(C)c1 , pEC50 reported as < 4.60

Entry Cc1cc(C)c(Oc2nc(-c3cc[nH]c(=O)c3)ccc2NS(C)(=O)=O)c(C)n1 , pEC50 reported as < 4.60

====

Target: ABCC6 WT (Homo sapiens, UniProt O95255)
Sequence (O95255 whole entry): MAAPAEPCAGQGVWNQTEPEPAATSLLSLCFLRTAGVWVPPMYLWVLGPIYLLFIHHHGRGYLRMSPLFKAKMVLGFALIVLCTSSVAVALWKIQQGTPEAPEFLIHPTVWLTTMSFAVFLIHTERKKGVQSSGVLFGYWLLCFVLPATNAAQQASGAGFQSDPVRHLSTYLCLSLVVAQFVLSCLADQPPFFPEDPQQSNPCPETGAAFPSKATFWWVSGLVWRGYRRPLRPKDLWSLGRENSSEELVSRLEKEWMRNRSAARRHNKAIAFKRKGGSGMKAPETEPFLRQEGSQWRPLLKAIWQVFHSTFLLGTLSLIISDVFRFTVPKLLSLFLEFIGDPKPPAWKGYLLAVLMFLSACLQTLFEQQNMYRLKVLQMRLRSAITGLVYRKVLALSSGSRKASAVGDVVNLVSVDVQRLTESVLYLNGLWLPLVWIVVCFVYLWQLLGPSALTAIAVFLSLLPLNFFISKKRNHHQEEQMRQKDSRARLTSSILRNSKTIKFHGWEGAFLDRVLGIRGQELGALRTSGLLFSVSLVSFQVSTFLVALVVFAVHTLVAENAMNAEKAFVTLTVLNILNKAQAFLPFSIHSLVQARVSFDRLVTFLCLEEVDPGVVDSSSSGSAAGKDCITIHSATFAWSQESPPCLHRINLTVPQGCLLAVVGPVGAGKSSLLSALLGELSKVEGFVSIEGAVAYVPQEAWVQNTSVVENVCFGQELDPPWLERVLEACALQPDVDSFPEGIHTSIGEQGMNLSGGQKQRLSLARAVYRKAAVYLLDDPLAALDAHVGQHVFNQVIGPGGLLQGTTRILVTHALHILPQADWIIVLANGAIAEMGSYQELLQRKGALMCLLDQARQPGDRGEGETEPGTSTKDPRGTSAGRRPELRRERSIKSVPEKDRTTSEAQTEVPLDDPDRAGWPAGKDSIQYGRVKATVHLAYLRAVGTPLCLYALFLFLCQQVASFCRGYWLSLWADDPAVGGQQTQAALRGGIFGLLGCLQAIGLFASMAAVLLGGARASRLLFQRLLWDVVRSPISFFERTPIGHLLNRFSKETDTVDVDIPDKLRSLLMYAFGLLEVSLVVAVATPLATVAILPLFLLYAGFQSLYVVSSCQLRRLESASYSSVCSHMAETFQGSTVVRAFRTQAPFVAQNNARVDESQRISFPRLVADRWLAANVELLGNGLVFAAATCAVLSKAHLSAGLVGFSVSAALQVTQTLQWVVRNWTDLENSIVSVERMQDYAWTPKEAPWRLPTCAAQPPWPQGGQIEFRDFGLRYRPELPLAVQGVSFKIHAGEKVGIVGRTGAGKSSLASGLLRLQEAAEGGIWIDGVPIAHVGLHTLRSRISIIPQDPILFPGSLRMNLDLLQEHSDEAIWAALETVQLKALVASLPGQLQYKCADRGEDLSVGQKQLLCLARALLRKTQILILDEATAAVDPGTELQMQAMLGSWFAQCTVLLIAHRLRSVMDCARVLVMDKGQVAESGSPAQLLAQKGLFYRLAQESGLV
Experiment: ABCC6 WT assay: HiBit protein expression
Conditions: HEK-293 cells transiently expressing HiBit-tagged ABCC6 WT; 24 h treatment; top concentration 20 μM; read-out: ABCC6 WT EC50, Emax
Description: To assess activity against ABCC6, compounds were screened in an assay measuring protein expression, using cells transfected with cDNA encoding HiBit-tagged ABCC6 wild-type. […] Dose response curves include ten doses with the top final concentration at 20 μM in 0.15% DMSO. […] The plates are rotated at room temperature for 10 minutes and luminescent signal is acquired using an EnVision Multimode Plate Reader (PerkinElmer). […]
pEC50: −log10 of the molar value.
Recorded pEC50 by entry

Past entries and their recorded results:
Entry Cc1cc(C2CC2)cc(C)c1Oc1nc(-c2cncc(C#N)c2)ccc1NS(C)(=O)=O , pEC50 reported as > 6.00

Entry Cc1cc(C)c(Oc2nc(-c3cc(C#N)cnc3C)ccc2NS(C)(=O)=O)c(C)n1 , pEC50 reported as 5.00 to 6.00

Entry Cc1cc(C(F)(F)F)nc(C2CC2)c1Oc1nc(-c2cncc(C#N)c2)ccc1N=S(C)(C)=O , pEC50 reported as > 6.00

Entry COCc1cncc(-c2ccc(NS(C)(=O)=O)c(Oc3c(C)cc(C)nc3C)n2)c1 , pEC50 reported as > 6.00

Entry CNS(=O)(=O)c1ccc(-c2cncc(Cl)c2)nc1Oc1c(C)cc(C)cc1C1CC1 , pEC50 reported as > 6.00

Entry Cc1nc(N2CC(S(C)(=O)=O)C2)nc(C)c1Oc1nc(-c2cncc(C#N)c2)ccc1NS(C)(=O)=O , pEC50 reported as 5.00 to 6.00

Shifting focus to the molecule that follows.
Entry Cc1cc(C(F)(F)F)nc(C2CC2)c1Oc1nc(-c2cncc(C#N)c2)ccc1NS(C)(=O)=O , pEC50 reported as > 6.00

====

Molecular target: ABCA4 P1380L (Homo sapiens, UniProt P78363, P1380L)
Construct: expressed in transfected cells
Sequence (P78363 whole entry P1380L): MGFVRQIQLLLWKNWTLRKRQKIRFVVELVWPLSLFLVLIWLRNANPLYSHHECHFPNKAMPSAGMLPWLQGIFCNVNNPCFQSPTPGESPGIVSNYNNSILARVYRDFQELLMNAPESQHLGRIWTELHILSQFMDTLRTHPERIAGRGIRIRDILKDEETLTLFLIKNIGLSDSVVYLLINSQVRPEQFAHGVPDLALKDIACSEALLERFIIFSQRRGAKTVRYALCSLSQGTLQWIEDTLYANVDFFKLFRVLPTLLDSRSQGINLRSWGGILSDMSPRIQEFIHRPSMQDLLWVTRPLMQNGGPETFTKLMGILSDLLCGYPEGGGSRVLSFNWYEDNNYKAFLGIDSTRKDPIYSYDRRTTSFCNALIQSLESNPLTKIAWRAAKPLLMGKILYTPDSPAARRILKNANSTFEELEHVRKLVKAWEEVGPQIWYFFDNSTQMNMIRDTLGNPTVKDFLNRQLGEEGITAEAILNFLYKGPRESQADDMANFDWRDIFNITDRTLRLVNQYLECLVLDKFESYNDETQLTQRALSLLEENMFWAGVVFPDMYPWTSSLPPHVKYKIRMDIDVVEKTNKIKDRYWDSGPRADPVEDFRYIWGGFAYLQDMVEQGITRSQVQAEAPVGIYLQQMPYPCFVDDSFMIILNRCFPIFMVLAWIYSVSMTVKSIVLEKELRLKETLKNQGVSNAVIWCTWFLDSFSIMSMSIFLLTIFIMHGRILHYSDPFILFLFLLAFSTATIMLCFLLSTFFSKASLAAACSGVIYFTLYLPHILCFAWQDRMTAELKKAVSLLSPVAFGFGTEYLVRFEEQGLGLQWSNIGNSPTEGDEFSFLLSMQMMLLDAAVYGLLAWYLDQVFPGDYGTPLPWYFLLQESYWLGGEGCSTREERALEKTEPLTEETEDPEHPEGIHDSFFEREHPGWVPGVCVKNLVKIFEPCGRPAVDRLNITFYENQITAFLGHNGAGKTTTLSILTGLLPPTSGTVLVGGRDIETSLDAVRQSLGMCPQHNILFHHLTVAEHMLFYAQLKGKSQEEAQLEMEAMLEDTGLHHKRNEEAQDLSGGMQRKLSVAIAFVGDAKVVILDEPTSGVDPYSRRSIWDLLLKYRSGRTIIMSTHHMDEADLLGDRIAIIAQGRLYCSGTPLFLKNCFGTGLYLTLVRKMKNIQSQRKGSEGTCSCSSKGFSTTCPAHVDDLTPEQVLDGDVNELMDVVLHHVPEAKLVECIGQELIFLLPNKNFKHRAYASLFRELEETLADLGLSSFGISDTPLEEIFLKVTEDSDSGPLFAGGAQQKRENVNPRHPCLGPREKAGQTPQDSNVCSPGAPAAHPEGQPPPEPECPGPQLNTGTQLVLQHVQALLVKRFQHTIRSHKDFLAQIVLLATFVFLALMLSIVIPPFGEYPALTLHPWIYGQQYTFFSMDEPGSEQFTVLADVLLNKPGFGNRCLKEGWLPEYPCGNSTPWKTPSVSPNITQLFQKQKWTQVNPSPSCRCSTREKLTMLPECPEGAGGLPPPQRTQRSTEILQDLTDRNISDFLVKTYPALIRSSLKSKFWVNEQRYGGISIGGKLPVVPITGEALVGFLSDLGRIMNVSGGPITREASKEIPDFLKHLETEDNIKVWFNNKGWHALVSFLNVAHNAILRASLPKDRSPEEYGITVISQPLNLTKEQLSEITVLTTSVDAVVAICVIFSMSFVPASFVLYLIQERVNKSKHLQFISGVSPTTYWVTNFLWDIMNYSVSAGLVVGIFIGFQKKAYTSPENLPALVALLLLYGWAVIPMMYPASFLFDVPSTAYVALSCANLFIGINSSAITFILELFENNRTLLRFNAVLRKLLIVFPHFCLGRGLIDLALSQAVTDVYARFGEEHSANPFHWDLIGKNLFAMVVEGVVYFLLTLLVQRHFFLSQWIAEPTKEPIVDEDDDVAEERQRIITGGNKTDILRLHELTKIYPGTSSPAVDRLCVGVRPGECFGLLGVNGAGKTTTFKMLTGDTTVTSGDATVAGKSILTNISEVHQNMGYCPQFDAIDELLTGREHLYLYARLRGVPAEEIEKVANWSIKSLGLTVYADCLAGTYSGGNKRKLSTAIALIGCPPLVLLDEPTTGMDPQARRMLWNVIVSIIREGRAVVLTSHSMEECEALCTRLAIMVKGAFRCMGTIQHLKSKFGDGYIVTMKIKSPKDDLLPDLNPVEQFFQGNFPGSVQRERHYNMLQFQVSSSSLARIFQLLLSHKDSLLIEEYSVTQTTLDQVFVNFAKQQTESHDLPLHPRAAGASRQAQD
Test: A4 correction dose-response assay: ABCA4 P1380L HiBit protein expression
Assay type: cell-based
Conditions: ABCA4 P1380L EC50, Emax, HEK-293 cells stably expressing HiBit-tagged ABCA4 P1380L; 24 h treatment; top concentration 30 μM
Value kind: EC50

Entry Cc1cc(C)c(Oc2nc(-c3cncc(C#N)c3)ccc2S(N)(=O)=O)c(C)n1 [Compound I-258] , EC50 reported as 1 to 10 µM

====

Recorded EC50 by entry
Biological target: ABCD2 WT (Homo sapiens, UniProt Q9UBJ2)
Assay: D2 correction dose-response assay: ABCD2 WT HiBit protein expression
Settings: HEK-293/ABCD2 WT cells, 24 hours treatment, HiBit luminescence; class combines EC50 and Mean MaxAct (fold); read-out: ABCD2 WT EC50, Emax

Past entries and their recorded results:
Entry Cc1cc(C)c(Oc2nc(-c3cncc(Cl)c3)ccc2NS(=O)(=O)C2COC2)c(C)n1 [Compound I-237] , EC50 reported as < 1 µM

Entry Cc1cc(C)c(Oc2nc(-c3cncc(S(C)(=O)=O)c3)ccc2NS(C)(=O)=O)c(C)c1 [Compound I-278] , EC50 reported as 1 to 10 µM

Entry Cc1cc(C(F)F)nc(C)c1Oc1nc(-c2cncc(C#N)c2)ccc1NS(=O)(=O)C1CC1 [Compound I-199] , EC50 reported as 1 to 10 µM

Shifting focus to the molecule that follows.
Entry Cc1cc(C(F)(F)F)nc(C2CC2)c1Oc1nc(-c2cncc(C#N)c2)ccc1S(=N)(=O)c1ccccn1 (stereo not shown) [Compound I-302] , EC50 reported as 10 to 25 µM

====

Target: ABCA4 P1380L (Homo sapiens, UniProt P78363, P1380L)
Construct: expressed in transfected cells
Assay: A4 correction dose-response assay: ABCA4 P1380L HiBit protein expression
Assay type: cell-based
Conditions: HEK-293 cells stably expressing HiBit-tagged ABCA4 P1380L; 24 h treatment; top concentration 30 μM; read-out: ABCA4 P1380L EC50, Emax
pEC50: −log10 of the molar value.
Recorded pEC50 by entry

Past entries and their recorded results:
Entry Cc1nc(C(F)F)nc(C2CC2)c1Oc1nc(-c2cncc(C#N)c2)ccc1S(=O)(=O)NC1CC1 [Compound I-314] , pEC50 reported as < 4.60

Entry CNS(=O)(=O)c1ccc(-c2cncc(C#N)c2)nc1Oc1c(C)cc(C2CC2)nc1C1CC1 [Compound I-298] , pEC50 reported as < 4.60

Entry Cc1cc(C)c(Oc2nc(-c3cncc(Cl)c3)ccc2S(=O)(=O)NCc2ccccc2)c(C)c1 [Compound I-88] , pEC50 reported as 5.00 to 6.00

Entry CC(=O)NC1CN(c2ccc(NS(=O)(=O)c3cccnc3)c(Oc3c(C)cc(C)cc3C3CC3)n2)C1 [Compound I-50] , pEC50 reported as < 4.60

Entry Cc1cc(C)c(Oc2nc(-c3cncc(Cl)c3)ccc2N2CCCCS2(=O)=O)c(C)c1 [Compound I-66] , pEC50 reported as < 4.60

More entries:
Entry Cc1nc(C2COC2)nc(C2CC2)c1Oc1nc(-c2cncc(C#N)c2)ccc1NS(C)(=O)=O [Compound I-143] , pEC50 reported as > 6.00

Entry Cc1cc(C2CC2)nc(C)c1Oc1nc(-n2cc(C#N)cn2)ccc1NS(C)(=O)=O [Compound I-256] , pEC50 reported as < 4.60

Entry Cc1cc(C)c(Oc2nc(N3CCC(C#N)C3)ccc2NS(C)(=O)=O)c(C)c1 (single isomer, unassigned) [Compound I-261] , pEC50 reported as 4.60 to 5.00

Entry Cc1cc(C(F)(F)F)nc(C)c1Oc1nc(-c2ccnc(C#N)c2)ccc1NS(C)(=O)=O [Compound I-219] , pEC50 reported as > 6.00
